assay: Solubility by shaking at 25° C., filtration and HPLC of the filtrate; type: physicochemical; conditions: FaSSIF with 1% Poloxamer 188, 1% Poloxamer 188 added; FaSSIF; LOQ = 2 μg/mL; read-out: Solubility
Where a SMILES comes first, the peptide text is derived from it. The star is where a group is joined. Palmitoyl = CCCCCCCCCCCCCCCC(=O)*
property measured: solubility (µg/mL)
Numeric only. Scale: µg/mL

Data request: Would you kindly share the measured solubility for CCCCCCCCCCCCCCCC(=O)N1CCC[C@H]1C(=O)N1CCC[C@H]1C(=O)NCC(=O)N[C@@H](Cc1ccc(O)cc1)C(=O)O [Compound II] (Palmitoyl-PPGY-OH) ?
Data returned: 10
